Where these numbers come from: patent US12378224B2

molecular target: BCR fusion to kinase domain of MerTK (Ba/F3-MerTK) (Homo sapiens, UniProt Q12866); experiment: In Cell TAM Kinase Assay Using BaF3 Cellular System; format: cell-based, murine; conditions: Ba/F3 BCR-kinase fusion proliferation, 72 hours, Cell Titer Glo; kinase not given; read-out: IC50
Sequence (Q12866 21-999 limits assumed, change not shown): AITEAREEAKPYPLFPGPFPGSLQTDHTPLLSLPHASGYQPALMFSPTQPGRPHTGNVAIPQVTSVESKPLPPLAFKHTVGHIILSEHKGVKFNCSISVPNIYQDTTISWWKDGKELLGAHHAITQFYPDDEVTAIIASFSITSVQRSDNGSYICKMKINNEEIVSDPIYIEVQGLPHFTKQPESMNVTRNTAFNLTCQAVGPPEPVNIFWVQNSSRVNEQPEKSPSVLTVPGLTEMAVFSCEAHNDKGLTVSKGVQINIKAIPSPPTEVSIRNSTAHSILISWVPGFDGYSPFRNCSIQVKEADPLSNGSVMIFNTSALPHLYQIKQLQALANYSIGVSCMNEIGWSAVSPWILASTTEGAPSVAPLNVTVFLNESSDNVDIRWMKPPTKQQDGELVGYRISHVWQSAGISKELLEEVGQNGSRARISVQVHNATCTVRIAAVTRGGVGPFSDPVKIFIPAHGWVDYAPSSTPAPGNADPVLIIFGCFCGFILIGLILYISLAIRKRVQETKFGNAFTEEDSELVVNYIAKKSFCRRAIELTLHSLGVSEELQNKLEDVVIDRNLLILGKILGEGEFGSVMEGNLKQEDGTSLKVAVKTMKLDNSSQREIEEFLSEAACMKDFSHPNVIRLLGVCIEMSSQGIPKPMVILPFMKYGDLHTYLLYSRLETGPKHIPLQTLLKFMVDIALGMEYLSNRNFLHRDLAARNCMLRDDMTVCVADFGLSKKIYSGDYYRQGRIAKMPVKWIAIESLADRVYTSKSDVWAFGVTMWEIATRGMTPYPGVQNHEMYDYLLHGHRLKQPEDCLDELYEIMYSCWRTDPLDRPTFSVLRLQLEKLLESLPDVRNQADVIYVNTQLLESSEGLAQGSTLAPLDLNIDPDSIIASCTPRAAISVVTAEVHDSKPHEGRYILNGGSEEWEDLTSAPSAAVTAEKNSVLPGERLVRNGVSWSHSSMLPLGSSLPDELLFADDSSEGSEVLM
pIC50: −log10 of the molar value.
measured parameter: pIC50

// returns reported pIC50 for input Cn1cc(-c2cnc(N)c(C(=O)N[C@@H]3CCN(C(=O)c4ccc(OCc5cccc(N)c5)cc4)C3)c2)cn1
< 6.00

// returns reported pIC50 for input Cn1cc(-c2cnc(N)c(C(=O)N[C@@H]3CCN(C(=O)c4ccc(-c5cccc(CO)c5)cc4)C3)c2)cn1
6.30 to 7.00

// returns reported pIC50 for input Nc1ncc(-c2cnn(Cc3cccnc3)c2)cc1C(=O)N[C@@H]1CCN(C(=O)c2ccc(-c3ccc(F)cc3Cl)cc2)C1
6.00 to 6.30

// returns reported pIC50 for input Cn1cc(-c2cnc(N)c(C(=O)N[C@@H]3CCN(C(=O)c4cc5ccccc5n4C)C3)c2)cn1
< 6.00
